# test.target: aromatase (Rattus norvegicus, UniProt P22443)
# Sequence (P22443 whole entry): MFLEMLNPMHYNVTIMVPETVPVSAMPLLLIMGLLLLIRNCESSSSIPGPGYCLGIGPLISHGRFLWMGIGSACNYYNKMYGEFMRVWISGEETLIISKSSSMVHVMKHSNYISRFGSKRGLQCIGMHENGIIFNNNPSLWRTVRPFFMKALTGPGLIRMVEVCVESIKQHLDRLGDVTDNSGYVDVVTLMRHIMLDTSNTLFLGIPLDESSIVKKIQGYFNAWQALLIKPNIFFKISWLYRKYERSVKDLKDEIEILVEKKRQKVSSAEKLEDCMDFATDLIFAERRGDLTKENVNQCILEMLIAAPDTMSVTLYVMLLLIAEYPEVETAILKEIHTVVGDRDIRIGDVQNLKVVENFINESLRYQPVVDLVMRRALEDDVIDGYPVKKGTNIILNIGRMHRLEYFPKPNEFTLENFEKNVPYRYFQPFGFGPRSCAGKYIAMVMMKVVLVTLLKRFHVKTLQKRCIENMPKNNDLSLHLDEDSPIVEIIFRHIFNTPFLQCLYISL
# test.method.notes: biochemical
# condition.notes: rat ovarian microsomes; substrate (androstenedione) 0.1 μM

{"molecule": "Cc1cc(Cl)ccc1N(Cc1cccnc1)C1=NCCS1", "test.target": "aromatase (Rattus norvegicus, UniProt P22443)", "EC50 [nM]": 440}
{"molecule": "Clc1ccc(CCN(Cc2cccnc2)C2=NCCS2)cc1", "test.target": "aromatase (Rattus norvegicus, UniProt P22443)", "EC50 [nM]": 900}
{"molecule": "CC(c1cccnc1)N(C1=NCCS1)c1ccc(Cl)cc1 (stereo not drawn)", "test.target": "aromatase (Rattus norvegicus, UniProt P22443)", "EC50 [nM]": 2350}
{"molecule": "CSc1ccc(N(Cc2cccnc2)C2=NCCS2)cc1", "test.target": "aromatase (Rattus norvegicus, UniProt P22443)", "EC50 [nM]": 3200}
{"molecule": "CC1CSC(N(c2ccc(Cl)cc2)C(C)c2cccnc2)=N1 (stereo not drawn)", "test.target": "aromatase (Rattus norvegicus, UniProt P22443)", "EC50 [nM]": 1950}
{"molecule": "Fc1ccc(N(Cc2cccnc2)C2=NCCS2)c(F)c1", "test.target": "aromatase (Rattus norvegicus, UniProt P22443)", "EC50 [nM]": 28}

Data provenance is patent US4767770A.
